Just for reference, patent US8809355B2 is where these values come from.

Target: benzodiazepine receptor
Experiment: Displacement of 3H-flumazenil in rat cortical tissue (receptor binding)
Details: 3H-Flumazenil binding in vitro, rat cortical membranes; mean ± SD of three determinations
Protocol: Affinity of test substances for the benzodiazepine receptor was determined in vitro by displacement of ^3H-flumazenil in rat cortical tissue.
READOUT: log10(Ki) (log10 of the value in nM)
Form field - Quantity: Ki; Unit: nM; Scale: log10

// sample Cc1ccc(-n2nc3c4cc(Cc5ccsc5)ccc4[nH]c(=O)n3c2=O)cc1 [Compound 16c] , its log10(Ki) was -0.64

Quick note, log10(Ki) for Cc1ccc(-n2nc3c4cc(Br)ccc4[nH]c(=O)n3c2=O)cc1 landed at -0.62

Measured log10(Ki), O=c1[nH]c2ccc(Br)cc2c2nn(-c3ccccc3)c(=O)n12 : -0.33

Summary for this compound, Cc1ccc(-n2nc3c4cc(CCc5ccc(-c6ccccc6)cc5)ccc4[nH]c(=O)n3c2=O)cc1 [Compound 14g] : log10(Ki) is 3.20

log10(Ki) for Cc1ccc(-n2nc3c4cc(CCc5cccc(O)c5)ccc4[nH]c(=O)n3c2=O)cc1 [Compound 14i] is 0.79

Just so you know, measured log10(Ki) for Cc1ccc(-n2nc3c4cc(CCc5cccnc5)ccc4[nH]c(=O)n3c2=O)cc1 [Compound 14d] came out at -0.70
